Measured Ki accompanies every entry in the list below.
# target_or_system: T1, rat NK1 receptor (rat, UniProt P14600 1-407)
# T1 construct: whole, on cells; Assayed as membrane preparations of transfected CHO cells; also called rNK1; rNK-1
# T1 sequence (P14600 whole entry): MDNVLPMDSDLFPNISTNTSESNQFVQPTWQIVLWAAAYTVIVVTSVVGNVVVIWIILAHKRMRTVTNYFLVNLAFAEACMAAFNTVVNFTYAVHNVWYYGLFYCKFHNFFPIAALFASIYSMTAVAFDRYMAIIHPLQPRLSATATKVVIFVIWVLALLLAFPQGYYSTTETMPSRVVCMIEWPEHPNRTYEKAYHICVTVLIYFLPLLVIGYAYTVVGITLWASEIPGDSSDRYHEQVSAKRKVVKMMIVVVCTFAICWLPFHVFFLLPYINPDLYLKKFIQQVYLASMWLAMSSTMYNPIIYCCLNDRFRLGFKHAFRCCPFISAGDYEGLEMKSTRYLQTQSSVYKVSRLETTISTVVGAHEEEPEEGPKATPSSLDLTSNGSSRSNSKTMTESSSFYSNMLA
# experimental_details: competition vs [3H]substance P, membranes of rNK1-transfected CHO cells
Square brackets hold non-standard residues; d marks the D form. * marks the point of attachment. NH(3,5-(CF3)2-benzyl) = FC(F)(F)c1cc(CN*)cc(C(F)(F)F)c1; OBzl(3,5-(CF3)2) = FC(F)(F)c1cc(CO*)cc(C(F)(F)F)c1; OBn = c1ccc(CO*)cc1
parameter: Ki (µM)

>>> endpoint_result("H-Y[dA]GFPLW-{NMe‑Bn(CF3)2} (also: TFA salt, TFA salt; also called TY013) [H-Tyr-D-Ala-Gly-Phe-Pro-Leu-Trp-NMe-3,5-Bzl(CF3)2]")
0.0061
>>> endpoint_result("H-Y[dA]GFPLW-OBn (also: TFA salt, TFA salt; also called TY011) [H-Tyr-DAla-Gly-Phe-Pro-Leu-Trp-O-Bzl]")
0.27
>>> endpoint_result("H-Y[dA]GFPLW-{OBzl(3,5-(CF3)2)} (also: TFA salt, TFA salt; also called TY001) [H-Tyr-DAla-Gly-Phe-Pro-Leu-Trp-O-3,5-Bzl(CF3)2]")
0.0016
>>> endpoint_result("H-Y[dA]GFPLW-{NH(3,5-(CF3)2-benzyl)} (also: TFA salt, TFA salt; also called TY012) [H-Tyr-D-Ala-Gly-Phe-Pro-Leu-Trp-NH-3,5-Bzl(CF3)2]")
0.033

Numbers sourced from patent US8026218.
